testTarget: OTU domain-containing protein 3 (Homo sapiens)
methodNotes: Validation of screening hits, potency titration, in vitro enzymatic, OTU domain-containing protein 3 DUB inhibitors (AID 1645868)
measurementParameters: purified OTUD3, ubiquitin-rhodamine cleavage fluorescence, 2 h
Calls of active or inactive are those of the source.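 The calls were made as follows: active = maximal percent inhibition of the deubiquitinase OTUD3 of at least 30% across the tested doses; inactive = the rest.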
// allowed return values: active, inactive

Field: example entries. Status: answers known.
>>> labelvalue("NS(=O)(=O)c1cc(C(=O)OCC(=O)NC2CCCc3ccccc32)ccc1Cl (stereo unspecified)")
"active"
>>> labelvalue("COC(=O)c1cc2c(ccn2C)n1CC(=O)NC1CC1")
"inactive"
>>> labelvalue("Cc1ccc(-n2c(-c3ccccc3)cn3c4c(=O)[nH]c(=O)n(C)c4nc23)cc1C")
"active"
>>> labelvalue("Cc1ccc(CNC(=O)c2cnc3ccccc3n2)cc1")
"inactive"
>>> labelvalue("O=C(Cc1cccs1)Nc1cc(F)c2nc(N3CCOCC3)ccc2c1")
"inactive"

# ---- query compound ----
Request: GET /call?item= `C/C=C1/C2=CCCN3C(=O)O[C@H]([C@H]1O)[C@H]23` returns the recorded outcome of this test.
Result: inactive

====

testTarget: OTU domain-containing protein 3 (Homo sapiens) (UniProt Q5T2D3)
Sequence (Q5T2D3 whole entry, looked up, the tested form may be a part): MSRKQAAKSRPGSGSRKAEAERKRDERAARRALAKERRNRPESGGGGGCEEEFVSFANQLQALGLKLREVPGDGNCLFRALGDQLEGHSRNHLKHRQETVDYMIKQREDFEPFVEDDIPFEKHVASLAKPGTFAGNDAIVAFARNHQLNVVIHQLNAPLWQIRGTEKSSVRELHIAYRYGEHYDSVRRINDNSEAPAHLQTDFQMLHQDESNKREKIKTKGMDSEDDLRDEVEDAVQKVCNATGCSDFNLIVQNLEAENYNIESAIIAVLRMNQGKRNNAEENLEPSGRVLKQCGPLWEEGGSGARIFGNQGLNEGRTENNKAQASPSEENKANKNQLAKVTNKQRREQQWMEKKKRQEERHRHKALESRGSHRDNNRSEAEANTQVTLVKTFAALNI
methodNotes: Validation of screening hits, potency titration, in vitro enzymatic, OTU domain-containing protein 3 DUB inhibitors (AID 1645868)
measurementParameters: purified OTUD3, ubiquitin-rhodamine cleavage fluorescence, 2 h
Activity calls are given as the source filed them.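 The calls were made as follows: active = maximal percent inhibition of the deubiquitinase OTUD3 of at least 30% across the tested doses; inactive = the rest.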
Your response should consist of one outcome taken from active, inactive

Some entries whose results are on file:
>>> labelvalue("COc1ccc(-n2nnc(C(=O)Nc3ccccc3)c2N)cc1")
"inactive"
>>> labelvalue("c1cncc(-c2nc(Nc3ccc4c(c3)OCCO4)c3ccccc3n2)c1")
"inactive"
>>> labelvalue("N#Cc1cn(CC(=O)N2CCc3ccccc32)c2ccccc12")
"inactive"
>>> labelvalue("Cc1cc(Cl)ccc1NC(=O)c1cc(-c2cccnc2)n[nH]1")
"inactive"
>>> labelvalue("O=C(Cc1nnc2c(-c3nc(C4CC4)no3)cccn12)Nc1ccccc1")
"active"

Request: Outcome? `C[C@@H](C(=O)NCc1ccc(F)cc1)N1C(=O)N2CCc3c([nH]c4ccccc34)[C@@]2(C)C1=O`
Result: active

====

testTarget: OTU domain-containing protein 3 (Homo sapiens)
methodNotes: Validation of screening hits, potency titration, in vitro enzymatic, OTU domain-containing protein 3 DUB inhibitors (AID 1645868)
measurementParameters: purified OTUD3, ubiquitin-rhodamine cleavage fluorescence, 2 h
The source made the active and inactive calls.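 The calls were made as follows: active = maximal percent inhibition of the deubiquitinase OTUD3 of at least 30% across the tested doses; inactive = the rest.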
Log the outcome using a class from y (active), n (inactive)

Reference set, count: 10
>>> labelvalue("Cc1ccc(-n2c(=O)c3ccccc3n(Cc3c(F)cccc3Cl)c2=O)cc1")
"n"
>>> labelvalue("Cc1cc(C)c2sc(N(CCCn3ccnc3)C(=O)Cc3ccccc3)nc2c1")
"y"
>>> labelvalue("COc1ccc(CNC(=O)Nc2cccc3ccccc23)cc1")
"y"
>>> labelvalue("CC(=O)N1CCc2cc(S(=O)(=O)NCCC(=O)Nc3cccc(C)c3C)ccc21")
"y"
>>> labelvalue("Cc1noc(-c2cc(=O)n(CC(=O)NCc3ccccc3)c3ccccc23)n1")
"n"
>>> labelvalue("COc1cccc2c1NC(=O)C21CCN(C(=O)Nc2cccc(C)c2)CC1")
"y"
>>> labelvalue("O=C1COc2ccccc2N1Cc1noc(-c2ccccc2)n1")
"n"
>>> labelvalue("CC(c1ccccc1)c1nc(-c2ccc(=O)[nH]c2)no1 (stereo unspecified)")
"n"
>>> labelvalue("O=c1c2cnc3nc(-c4cccnc4)nn3c2ccn1CCc1ccccc1")
"n"
>>> labelvalue("CN(C(=O)CSc1nnc(-c2cc3ccccc3n2C)o1)c1ccccc1")
"n"

Continue with the next molecule.
Request: Write down the call the test reported for this molecule. Item: `CCOC(=O)c1cnn(-c2ccc(C(=O)Nc3ccc(C)c(Cl)c3)cc2)c1N`
Result: n
